# MEASURED ON: PDE6 from bovine retina (Bos taurus, UniProt P11541+P23439)
# Construct: the PDE6 was isolated form bovine retinas
# Sequence (P11541 2-856 limits assumed): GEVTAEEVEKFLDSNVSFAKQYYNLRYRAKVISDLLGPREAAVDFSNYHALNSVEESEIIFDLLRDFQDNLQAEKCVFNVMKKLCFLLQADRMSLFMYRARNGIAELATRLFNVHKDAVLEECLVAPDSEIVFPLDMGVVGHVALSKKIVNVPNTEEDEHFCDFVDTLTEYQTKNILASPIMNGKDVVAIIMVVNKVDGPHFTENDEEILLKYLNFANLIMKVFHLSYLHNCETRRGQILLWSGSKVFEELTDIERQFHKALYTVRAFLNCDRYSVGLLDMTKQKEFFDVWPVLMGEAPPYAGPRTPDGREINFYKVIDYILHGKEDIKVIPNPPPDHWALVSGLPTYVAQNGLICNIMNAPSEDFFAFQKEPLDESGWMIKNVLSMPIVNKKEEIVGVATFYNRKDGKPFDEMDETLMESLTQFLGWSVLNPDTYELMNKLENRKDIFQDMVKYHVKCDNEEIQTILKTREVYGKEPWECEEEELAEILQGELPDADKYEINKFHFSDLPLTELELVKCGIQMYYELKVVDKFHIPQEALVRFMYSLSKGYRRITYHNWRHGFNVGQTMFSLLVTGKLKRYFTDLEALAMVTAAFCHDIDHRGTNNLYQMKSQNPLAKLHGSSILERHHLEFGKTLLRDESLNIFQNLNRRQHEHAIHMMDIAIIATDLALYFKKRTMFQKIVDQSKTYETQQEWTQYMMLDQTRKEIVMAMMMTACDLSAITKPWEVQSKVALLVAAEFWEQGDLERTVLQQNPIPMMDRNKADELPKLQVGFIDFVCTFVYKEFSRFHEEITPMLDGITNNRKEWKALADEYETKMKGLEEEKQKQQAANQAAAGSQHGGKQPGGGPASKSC
# Sequence (P23439 2-850 limits assumed): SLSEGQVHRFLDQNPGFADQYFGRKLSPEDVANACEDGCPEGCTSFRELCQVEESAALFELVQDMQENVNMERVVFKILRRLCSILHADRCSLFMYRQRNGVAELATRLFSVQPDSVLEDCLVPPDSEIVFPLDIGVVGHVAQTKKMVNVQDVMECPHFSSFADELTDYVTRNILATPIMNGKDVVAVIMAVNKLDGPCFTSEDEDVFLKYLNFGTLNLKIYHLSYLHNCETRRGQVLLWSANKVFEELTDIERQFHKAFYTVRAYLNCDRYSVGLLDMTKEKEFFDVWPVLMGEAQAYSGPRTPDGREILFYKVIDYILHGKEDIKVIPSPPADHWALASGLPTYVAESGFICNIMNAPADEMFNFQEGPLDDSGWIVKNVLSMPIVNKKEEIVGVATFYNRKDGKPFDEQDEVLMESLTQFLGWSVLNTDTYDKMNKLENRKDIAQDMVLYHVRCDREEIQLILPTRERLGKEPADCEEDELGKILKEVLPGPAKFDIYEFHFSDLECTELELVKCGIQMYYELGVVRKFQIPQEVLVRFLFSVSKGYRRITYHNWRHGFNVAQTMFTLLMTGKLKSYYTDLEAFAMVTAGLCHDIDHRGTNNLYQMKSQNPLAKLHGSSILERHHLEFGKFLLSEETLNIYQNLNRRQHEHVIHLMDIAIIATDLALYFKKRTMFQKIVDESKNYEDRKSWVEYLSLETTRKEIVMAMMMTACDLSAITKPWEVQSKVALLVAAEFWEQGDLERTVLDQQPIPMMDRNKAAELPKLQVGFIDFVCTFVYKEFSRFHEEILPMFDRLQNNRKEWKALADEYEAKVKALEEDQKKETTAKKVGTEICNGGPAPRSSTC
# ASSAY NOTES: PDE6 inhibitory activity test (scintillation proximity assay)
# CONDITION CONTEXT: PDE6 from bovine retina
MEASUREMENT NAME: IC50 (nM)

>>> df
                              sample_smiles  unit_annotation  meas_value
0  CCCc1nn(C)c2c(=O)[nH]c(-c3cc(S(=O)(=O)N(CCN4CCOCC4)Cc4ccccc4)ccc3OCC)nc12               nM        93.6

1: CCCOc1ccc(S(=O)(=O)N(CCOC(C)=O)CCOC(C)=O)cc1-c1nc2c(CCC)nn(C)c2c(=O)[nH]1
2: CCCOc1ccc(S(=O)(=O)N(CCO)CCO)cc1-c1nc2c(CCC)nn(C)c2c(=O)[nH]1
Determine, for 1 and 2 , which has the greater value of IC50. Your choice should be expressed through its label. 2
(2: 56.5 nM, 1: 16.8 nM)

1: CCCc1nn(C)c2c(=O)[nH]c(-c3cc(S(=O)(=O)N(CCOC(C)=O)CCOC(C)=O)ccc3OCC)nc12
2: CCCOc1ccc(S(=O)(=O)N(CCN2CCOCC2)Cc2ccccc2)cc1-c1nc2c(CCC)nn(C)c2c(=O)[nH]1
Lab notebook, comparison: 1 versus 2 , higher IC50 goes to which? Output the label that corresponds to your choice. 1
